// data source = patent US12319697B2

Reported chromatographic logP values follow for various molecules
assay: log P[n] by reversed-phase HPLC (C18), LC-UV in the neutral range, EEC Directive 79/831 Annex V.A8; format: physicochemical; details: reversed-phase HPLC column (C18), 79 mg/l ammonium carbonate in water and acetonitrile, gradient 10% to 95% acetonitrile
Form: value (number only, do not type unit).

Would you please look over these solved cases?
>>> testvalue("CCSc1c(-c2nc3cc(SC(F)(F)F)nnc3n2C)nc(-c2ccc(Cl)cc2)n1C")
4.34
>>> testvalue("CCSc1c(-c2nc3cc(C(F)(F)C(F)(F)F)ncc3n2C)ncn1C [Example 6]")
2.71
>>> testvalue("CCSc1c(I)ncn1C [Example 8 Step 1]")
1.91
>>> testvalue("CCSc1c(-c2nc3cc(C(F)(F)C(F)(F)F)nnc3n2C)nc(-c2ccc(Cl)cn2)n1C")
4.66
>>> testvalue("CCSc1c(-c2nc3cc(C(F)(F)F)nnc3n2C)ncn1C [Example 1]")
2.37

Give a short answer stating reported chromatographic logP for CCSc1c(-c2nc3cc(Br)cnc3n2C)nc(C2CC2)n1C [Example 7] .
3.23

Give a short answer stating reported chromatographic logP for CCSc1c(-c2nc3cc(C(F)(F)C(F)(F)F)nnc3n2C)nc(C2CC2)n1C .
3.75

Give a short answer stating reported chromatographic logP for CCSc1c(-c2nc3cc(C(F)(F)C(F)(F)F)nnc3n2C)nc(-c2ccc(Cl)cc2)n1C .
4.6

---

Assay: log P[a] by reversed-phase HPLC (C18), LC-UV in the acidic range, EEC Directive 79/831 Annex V.A8
Assay type: physicochemical
Details: reversed-phase HPLC column (C18), 0.9 ml/l formic acid in water and 1.0 ml/l formic acid in acetonitrile, gradient 10% to 95% acetonitrile
Protocol: The log P values were determined according to EEC Directive 79/831 Annex V.A8 by HPLC (high-performance liquid chromatography) on a reversed-phase column (C18) using the following methods: The log P[a] value is determined by LC-UV measurement in the acidic range using 0.9 ml/1 formic acid in water and 1.0 ml/1 formic acid in acetonitrile as mobile phases (linear gradient from 10% acetonitrile to 95% acetonitrile). […]
Entry flag: t if chromatographic logP reaches 3; f if it does not.

Recorded results for 8 molecules are shown here.
>>> discretelabel("CCSc1c(-c2nc3cc(C(F)(F)F)nnc3n2C)ncn1C")
"f"
>>> discretelabel("CCSc1c(I)nc(Br)n1C")
"f"
>>> discretelabel("CCSc1c(-c2nc3cc(C(F)(F)C(F)(F)F)nnc3n2C)nc(-c2ccc(Cl)s2)n1C")
"t"
>>> discretelabel("CCSc1c(I)ncn1C")
"f"
>>> discretelabel("CCSc1c(-c2nc3cc(C(F)(F)F)nnc3n2C)nc(-c2ccc(Cl)cc2)n1C")
"t"
>>> discretelabel("CCSc1c(-c2nc3cc(SC(F)(F)F)nnc3n2C)nc(-c2ccc(Cl)cc2)n1C")
"t"
>>> discretelabel("CCSc1c(-c2nc3cc(C(F)(F)C(F)(F)F)nnc3n2C)nc(C2CC2)n1C")
"t"
>>> discretelabel("CCSc1c(-c2nc3cc(SC(F)(F)F)nnc3n2C)nc(C2CC2)n1C")
"t"

Textbook exercise: given the entry CCSc1c(-c2nc3cc(C(F)(F)C(F)(F)F)nnc3n2C)ncn1C , state whether its chromatographic logP is greater than or equal to 3.
f

Textbook exercise: given the entry Cn1cnc2cc(C(F)(F)F)ncc21 , state whether its chromatographic logP is greater than or equal to 3.
f

Textbook exercise: given the entry CCSc1c(-c2nc3cc(C(F)(F)C(F)(F)F)nnc3n2C)nc(Br)n1C , state whether its chromatographic logP is greater than or equal to 3.
t

Textbook exercise: given the entry CCSc1c(-c2nc3cc(C(F)(F)C(F)(F)F)nnc3n2C)nc(-c2ccc(Cl)cc2)n1C , state whether its chromatographic logP is greater than or equal to 3.
t

Textbook exercise: given the entry CCSc1c(-c2nc3cc(C(F)(F)C(F)(F)F)nnc3n2C)nc(-c2ccc(Cl)cn2)n1C , state whether its chromatographic logP is greater than or equal to 3.
t

Textbook exercise: given the entry CCS(=O)(=O)c1c(-c2nc3cc(C(F)(F)C(F)(F)F)nnc3n2C)ncn1C , state whether its chromatographic logP is greater than or equal to 3.
f

Textbook exercise: given the entry CCSc1c(-c2nc3cc(C(F)(F)C(F)(F)F)ncc3n2C)ncn1C , state whether its chromatographic logP is greater than or equal to 3.
f
